- Test system: Trychophyton mentagrophytes #6
- PROTOCOL_NOTES: Agar plate disc diffusion test, MIC per disc
- Type: cell-based
- RUN_CONDITIONS: 0.01M sodium borate, pH 7.5, 24 hours at 30° C.
Numbered stars: 1 amine (or outer) side, 2 acyl side, 3 side chain; on linkers, the order of the positions; unused ones are H or OH. Bridge positions count the residues as written; N and C are the ends. Square brackets hold non-standard residues; d marks the D form. Peptide text beside a SMILES is read from it. * marks the point of attachment. Orn(4R-OH,5R-OH) = O=C([C@H](C[C@@H](O)[C@@H](O)N[*:3])N[*:1])[*:2]; hTyr(3S-OH,4S-OH) = N[C@H](C(=O)O)[C@H](O)[C@@H](O)c1ccc(O)cc1; Pro(3S-OH,4S-Me) = C[C@H]1CN[C@H](C(=O)O)[C@H]1O; Hyp = O=C(O)[C@@H]1C[C@@H](O)CN1; 4Abz = Nc1ccc(C(=O)O)cc1; Heptanoyl = CCCCCCC(=O)*
PROPERTY_LABEL: MIC (μg/disc)
Give the quantity in μg/disc, number only.

Query :: Fill in the blank: the reported MIC of CCCCCCC(=O)Nc1ccc(C(=O)N[C@H]2C[C@@H](O)[C@@H](O)NC(=O)[C@@H]3[C@@H](O)[C@@H](C)CN3C(=O)[C@H]([C@@H](C)O)NC(=O)[C@H]([C@H](O)[C@@H](O)c3ccc(O)cc3)NC(=O)[C@@H]3C[C@@H](O)CN3C(=O)[C@H]([C@@H](C)O)NC2=O)cc1 [Example 78] ({Heptanoyl-4Abz}-[Orn(4R-OH,5R-OH)]T[Hyp][hTyr(3S-OH,4S-OH)]T[Pro(3S-OH,4S-Me)]; lactam 1-C) is ____.
Result :: 1.25
